System: ACHN renal
PROTOCOL DETAILS: NCI-60 one-dose screen, 48 h
SETUP CONDITIONS: 10 µM unless noted
About 83,000 compounds went through this panel and 20% of them were active in at least one assay; those are over-represented in the sample as a whole. The source made the active and inactive calls. Rule for the calls: active = growth percent below 10; inactive = the rest.
Labels: true (1) (active), false (0) (inactive)

# COMPOUND, CLASS ASSIGNMENT
rows = [
    ("Cc1nc2ccccc2n1CC1C(=O)NC(=O)NC1=O", "false (0)"),
    ("CC1Cc2ccccc2N1NC(=O)c1ccc(Cl)c(S(N)(=O)=O)c1 (stereo unspecified)", "false (0)"),
    ("Cc1cc2nc3ccc(N=Nc4ccc(N(C)C)cc4)cc3n(-c3ccccc3)c-2cc1=N", "true (1)"),
    ("COc1ccc(-c2nn(C(=O)c3cc(OC)c(OC)c(OC)c3)c3cc(N)ccc23)cc1", "false (0)"),
    ("CCOC(=O)c1[nH]c(C)c(C(=O)OCc2ccccc2C#N)c1C", "false (0)"),
    ("S=c1nc(-c2ccccc2)oc(=NC2CCCCC2)n1C1CCCCC1", "false (0)"),
    ("COc1nc2ccccc2cc1-c1nc2c(cnn2-c2ccc(Br)cc2)c(=O)[nH]1", "false (0)"),
    ("CCCCN(C)N=Nc1ccc(C(N)=O)cc1", "false (0)"),
    ("CCOC(=O)Nc1ccc(C(=O)/C=C/c2ccccc2)cc1", "false (0)"),
    ("CC1Cc2c(ncn3c(-c4ccc(F)cc4)nnc23)N(C)c2ccccc21 (stereo unspecified)", "false (0)"),
    ("Cn1cc(-c2cc3ncnc(Nc4ccc(CC(=O)Nc5cc(C(C)(C)C)on5)cc4)c3s2)cn1", "false (0)"),
    ("COc1nc2ccccc2cc1-c1nc2c(cnn2-c2ccccc2)c(=O)[nH]1", "false (0)"),
    ("COc1cccc(Oc2ccccc2NC(=O)CNC(=O)c2cccc3ccccc23)c1", "false (0)"),
    ("O=C1NC(=O)C(Cn2cnc3ccccc32)N1 (stereo unspecified)", "false (0)"),
    ("CCOC(=O)c1c(C)oc2ncnc(N3CCN(C(=O)COc4ccc(C(C)(C)C)cc4)CC3)c12", "false (0)"),
    ("CN1CCN(c2ccc(-c3cc4c(Nc5ccc(F)c(Cl)c5)ncnn4c3)cc2)CC1", "false (0)"),
    ("Cc1ccc(C(=O)NN2C(=O)CSC2c2cccc([N+](=O)[O-])c2)cn1 (stereo unspecified)", "false (0)"),
    ("COc1cc(CCC[P+](c2ccccc2)(c2ccccc2)c2ccccc2)c(OC)c2c1OCO2", "false (0)"),
    ("COc1cccc2c(=O)c3c(sc12)c(N1CCNCC1)nc1ccccc13", "false (0)"),
    ("CC(=O)N1CCN(c2ccc(OCC3CO[C@](Cn4ccnc4)(c4ccc(Cl)cc4Cl)O3)cc2)CC1 (stereo partly specified)", "false (0)"),
    ("O=C1COCCN1c1ccc(NCc2cn(C(=O)c3ccc(Cl)cc3)c3ccccc23)cc1", "false (0)"),
]

---

System: HOP-92 NSCLC
PROTOCOL DETAILS: NCI-60 one-dose screen, 48 h (100 = growth as untreated, 0 = no growth, -100 = all killed)
SETUP CONDITIONS: 10 µM unless noted
Compounds without any hit were thinned out: in the full panel of roughly 83,000, 20% have a hit.
Simple rule here: growth less than 40% is True, otherwise False.

# COMPOUND, CLASS ASSIGNMENT
records = [
    ("COc1ccc(C(=O)C(C)C)c2ccccc12", "False"),
    ("CC/C=C\\C[C@@H](O)C/C=C1/C(=O)C=C[C@H]1C/C=C\\CCCC(=O)OC", "True"),
    ("c1ccc(CO[C@H]2CO[C@H]3[C@@H]2OC[C@@H]3Oc2ccc(Nc3ncnc4ccsc34)cc2)cc1", "False"),
    ("S=c1nc(-c2ccccc2)oc(=NC2CCCCC2)n1C1CCCCC1", "True"),
    ("Fc1cc2c(cc1Cl)N(c1ncnc3ccc(-c4cnc5cnccn45)cc13)CC2", "False"),
    ("Nc1nc(Cl)cc(=O)n1Cc1ccccc1", "False"),
    ("COc1ccc(OC)c(/C=C/c2nnc(Nc3ccccc3)o2)c1", "False"),
    ("CC1=C(SCCC(=O)OC(C[Se]C2=C(C)C(=O)c3ccccc3C2=O)C(=O)NC(C)(C)C)C(=O)c2ccccc2C1=O (stereo not given)", "True"),
    ("NS(=O)(=O)c1ccc(-n2nc(-c3ccc(Cl)cc3)c3ccccc3c2=O)cc1", "False"),
    ("CCN(CC)c1ccc(C2=NN(C(C)=O)C(c3cc(OC)c(OC)c(OC)c3)C2)cc1 (stereo not given)", "True"),
    ("C[C@]12CC[C@@H]3c4cc(OC(F)F)c(OS(N)(=O)=O)cc4CC[C@H]3[C@@H]1CC[C@@H]2OS(N)(=O)=O", "False"),
    ("CCCCNc1nc(NN2C(=O)c3cccc4cccc(c34)C2=O)nc(-n2cnc3ccccc32)n1", "False"),
    ("Cc1[nH]c(C(=O)Nc2ccc(C(=O)NCCN)cc2OC(C)C)c(Cl)c1Cl", "True"),
    ("COc1ccc2sc3c(NCCCN(C)C)nc4ccccc4c3c(=O)c2c1", "True"),
    ("Cc1nc2ccccc2c(/C=C/c2ccccc2)c1C(=O)/C=C/c1ccc(C(F)(F)F)cc1", "True"),
    ("O=C(N/N=C/c1c(Cl)cccc1Cl)c1ccc(C(F)(F)F)nc1Nc1cccc(C(F)(F)F)c1", "True"),
    ("O=C(Nc1ccc(Cl)cc1F)c1cc(Cl)ccc1O", "True"),
    ("COc1ccc(C2=Nn3c(nnc3-c3cc(Cl)cc(Cl)c3Cl)SC2)cc1", "True"),
    ("CCOC(=O)c1[nH]c(C)c(C(=O)OCc2ccccc2C#N)c1C", "False"),
]
